settings: CDF1/SLC male mice, s.c. once a day for 10 days, Behrens-Karber, daily dose
Property: LD50 during administration period of 10 consecutive days (mg/kg/day)
Write the answer as a number in mg/kg/day, unit excluded.

Item CCCCCCCCNC(=O)C(N)CNC(CC(N)=O)c1nc(N)c(C)c(C(=O)NC(C(=O)NC(C)C(O)C(C)C(=O)NC(C(=O)NCCc2nc(-c3nc(C(=O)NCCC[N+](C)(C)CCCN(Cc4ccccc4)Cc4ccccc4)cs3)cs2)C(C)O)C(OC2OC(CO)C(O)C(O)C2OC2OC(CO)C(O)C(OC(N)=O)C2O)c2cnc[nH]2)n1 (stereo not shown) has what recorded LD50 during administration period of 10 consecutive days?
15.0

====

Assign metabolised at 40 min to each entry below.
Biological target: bleomycin-inactivating enzyme (Rattus norvegicus)
Sequence (P70645 1-454): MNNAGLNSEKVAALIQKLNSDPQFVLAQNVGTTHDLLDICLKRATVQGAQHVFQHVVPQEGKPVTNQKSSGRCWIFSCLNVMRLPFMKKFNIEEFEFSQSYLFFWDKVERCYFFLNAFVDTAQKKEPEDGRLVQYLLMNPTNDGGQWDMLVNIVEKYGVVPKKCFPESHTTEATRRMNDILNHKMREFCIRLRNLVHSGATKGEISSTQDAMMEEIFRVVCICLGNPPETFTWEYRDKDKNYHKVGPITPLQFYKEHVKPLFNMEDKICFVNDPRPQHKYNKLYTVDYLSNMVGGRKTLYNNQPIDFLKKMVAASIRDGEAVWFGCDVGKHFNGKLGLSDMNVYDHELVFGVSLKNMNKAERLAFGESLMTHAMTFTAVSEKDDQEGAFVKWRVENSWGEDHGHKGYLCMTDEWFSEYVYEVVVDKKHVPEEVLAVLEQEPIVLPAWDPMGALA
Test: in vitro
Conditions: liver extract

Item CNC(=O)C(N)CNC(CC(N)=O)c1nc(N)c(C)c(C(=O)NC(C(=O)NC(C)C(O)C(C)C(=O)NC(C(=O)NCCc2nc(-c3nc(C(=O)NCCc4c[nH]cn4)cs3)cs2)C(C)O)C(OC2OC(CO)C(O)C(O)C2OC2OC(CO)C(O)C(OC(N)=O)C2O)c2cnc[nH]2)n1 (stereo not drawn) has what recorded metabolised at 40 min?
5 to 14%

Item: CCNC(=O)C(N)CNC(CC(N)=O)c1nc(N)c(C)c(C(=O)NC(C(=O)NC(C)C(O)C(C)C(=O)NC(C(=O)NCCc2nc(-c3nc(C(=O)NCCc4c[nH]cn4)cs3)cs2)C(C)O)C(OC2OC(CO)C(O)C(O)C2OC2OC(CO)C(O)C(OC(N)=O)C2O)c2cnc[nH]2)n1 (stereo not drawn)
15 to 24%

Item: Cc1c(N)nc(C(CC(N)=O)NCC(N)C(N)=O)nc1C(=O)NC(C(=O)NC(C)C(O)C(C)C(=O)NC(C(=O)NCCc1nc(-c2nc(C(=O)NCCCCNC(=N)N)cs2)cs1)C(C)O)C(OC1OC(CO)C(O)C(O)C1OC1OC(CO)C(O)C(OC(N)=O)C1O)c1cnc[nH]1 (stereo not drawn) [bleomycin B2, reference compound]
50%

====

tested on: pulmonary fibrosis; assay: Pulmonary toxicity (pulmonary fibrosis) in mice; conditions: ICR mice, 5 mg/kg i.p. once a day for 10 days; points 0, 1, 2, 4, 6
Assign Grade: Total score of pulmonary fibrosis/total number of samples to each entry below.

Item CCCCNCCCN(C)CCCNC(=O)c1csc(-c2csc(CCNC(=O)C(NC(=O)C(C)C(O)C(C)NC(=O)C(NC(=O)c3nc(C(CC(N)=O)NCC(N)C(=O)NC(C)C)nc(N)c3C)C(OC3OC(CO)C(O)C(O)C3OC3OC(CO)C(O)C(OC(N)=O)C3O)c3cnc[nH]3)C(C)O)n2)n1 (stereo not shown) has what recorded Grade: Total score of pulmonary fibrosis/total number of samples?
13/27

Item: Cc1c(N)nc(C(CC(N)=O)NCC(N)C(=O)NCCCNC(C)c2ccccc2)nc1C(=O)NC(C(=O)NC(C)C(O)C(C)C(=O)NC(C(=O)NCCc1nc(-c2nc(C(=O)NCCCN(C)CCCNCCc3ccc(Cl)cc3)cs2)cs1)C(C)O)C(OC1OC(CO)C(O)C(O)C1OC1OC(CO)C(O)C(OC(N)=O)C1O)c1cnc[nH]1 (stereo not shown)
0/3

Item: CCCCN(CCCC)CCCNC(=O)C(N)CNC(CC(N)=O)c1nc(N)c(C)c(C(=O)NC(C(=O)NC(C)C(O)C(C)C(=O)NC(C(=O)NCCc2nc(-c3nc(C(=O)NCCC[N+](C)(C)CCCN(Cc4ccccc4)Cc4ccccc4)cs3)cs2)C(C)O)C(OC2OC(CO)C(O)C(O)C2OC2OC(CO)C(O)C(OC(N)=O)C2O)c2cnc[nH]2)n1 (stereo not shown)
0/27

Item: CC[N+](CC)(CCCNC(=O)c1csc(-c2csc(CCNC(=O)C(NC(=O)C(C)C(O)C(C)NC(=O)C(NC(=O)c3nc(C(CC(N)=O)NCC(N)C(=O)NCCCNC(C)c4ccccc4)nc(N)c3C)C(OC3OC(CO)C(O)C(O)C3OC3OC(CO)C(O)C(OC(N)=O)C3O)c3cnc[nH]3)C(C)O)n2)n1)CCCN(Cc1ccccc1)Cc1ccccc1 (stereo not shown)
0/27

Item: Cc1c(N)nc(C(CC(N)=O)NCC(N)C(=O)NCCN2CCNCC2)nc1C(=O)NC(C(=O)NC(C)C(O)C(C)C(=O)NC(C(=O)NCCc1nc(-c2nc(C(=O)NCCCNC(C)c3ccccc3)cs2)cs1)C(C)O)C(OC1OC(CO)C(O)C(O)C1OC1OC(CO)C(O)C(OC(N)=O)C1O)c1cnc[nH]1 (stereo not shown)
11/27

Item: Cc1c(N)nc(C(CC(N)=O)NCC(N)C(=O)NCc2ccccc2)nc1C(=O)NC(C(=O)NC(C)C(O)C(C)C(=O)NC(C(=O)NCCc1nc(-c2nc(C(=O)NCCC[N+](C)(CCCN(Cc3ccccc3)Cc3ccccc3)Cc3ccccc3)cs2)cs1)C(C)O)C(OC1OC(CO)C(O)C(O)C1OC1OC(CO)C(O)C(OC(N)=O)C1O)c1cnc[nH]1 (stereo not shown)
0/24

Item: CCCCNCCCN(C)CCCNC(=O)c1csc(-c2csc(CCNC(=O)C(NC(=O)C(C)C(O)C(C)NC(=O)C(NC(=O)c3nc(C(CC(N)=O)NCC(N)C(=O)NCCCN(C)CCCNCCCC)nc(N)c3C)C(OC3OC(CO)C(O)C(O)C3OC3OC(CO)C(O)C(OC(N)=O)C3O)c3cnc[nH]3)C(C)O)n2)n1 (stereo not shown)
7/21

====

system: pulmonary fibrosis; assay: Pulmonary toxicity (pulmonary fibrosis) in mice; conditions: ICR mice, 5 mg/kg i.p. once a day for 10 days; points 0, 1, 2, 4, 6
Property: Grade: Total score of pulmonary fibrosis/total number of samples (%)
Write the answer as a number in %, unit excluded.

Item Cc1c(N)nc(C(CC(N)=O)NCC(N)C(=O)NCCCNC(C)c2ccccc2)nc1C(=O)NC(C(=O)NC(C)C(O)C(C)C(=O)NC(C(=O)NCCc1nc(-c2nc(C(=O)NCCCN(C)CCCNCC3CCCCCCC3)cs2)cs1)C(C)O)C(OC1OC(CO)C(O)C(O)C1OC1OC(CO)C(O)C(OC(N)=O)C1O)c1cnc[nH]1 (stereo not drawn) [Compound 60] has what recorded Grade: Total score of pulmonary fibrosis/total number of samples (%)?
0

Item: CCCCNCCCN(C)CCCNC(=O)c1csc(-c2csc(CCNC(=O)C(NC(=O)C(C)C(O)C(C)NC(=O)C(NC(=O)c3nc(C(CC(N)=O)NCC(N)C(=O)NCCCN(C)CCCNCCCC)nc(N)c3C)C(OC3OC(CO)C(O)C(O)C3OC3OC(CO)C(O)C(OC(N)=O)C3O)c3cnc[nH]3)C(C)O)n2)n1 (stereo not drawn) [Compound 38]
33

Item: Cc1c(N)nc(C(CC(N)=O)NCC(N)C(=O)NCCCN(C)CCCNCCc2ccc(Cl)cc2)nc1C(=O)NC(C(=O)NC(C)C(O)C(C)C(=O)NC(C(=O)NCCc1nc(-c2nc(C(=O)NCCCN(C)CCCNCCc3ccc(Cl)cc3)cs2)cs1)C(C)O)C(OC1OC(CO)C(O)C(O)C1OC1OC(CO)C(O)C(OC(N)=O)C1O)c1cnc[nH]1 (stereo not drawn) [Compound 45]
0

Item: CCCCCCCCNC(=O)C(N)CNC(CC(N)=O)c1nc(N)c(C)c(C(=O)NC(C(=O)NC(C)C(O)C(C)C(=O)NC(C(=O)NCCc2nc(-c3nc(C(=O)NCCC[N+](CC)(CC)CCCN(Cc4ccccc4)Cc4ccccc4)cs3)cs2)C(C)O)C(OC2OC(CO)C(O)C(O)C2OC2OC(CO)C(O)C(OC(N)=O)C2O)c2cnc[nH]2)n1 (stereo not drawn) [Compound 56]
0

Item: CC[N+](CC)(CCCNC(=O)c1csc(-c2csc(CCNC(=O)C(NC(=O)C(C)C(O)C(C)NC(=O)C(NC(=O)c3nc(C(CC(N)=O)NCC(N)C(=O)NCCCNC(C)c4ccccc4)nc(N)c3C)C(OC3OC(CO)C(O)C(O)C3OC3OC(CO)C(O)C(OC(N)=O)C3O)c3cnc[nH]3)C(C)O)n2)n1)CCCN(Cc1ccccc1)Cc1ccccc1 (stereo not drawn) [Compound 55]
0

Item: Cc1c(N)nc(C(CC(N)=O)NCC(N)C(=O)NCCCNC(C)c2ccccc2)nc1C(=O)NC(C(=O)NC(C)C(O)C(C)C(=O)NC(C(=O)NCCc1nc(-c2nc(C(=O)NCCCNC(C)c3ccccc3)cs2)cs1)C(C)O)C(OC1OC(CO)C(O)C(O)C1OC1OC(CO)C(O)C(OC(N)=O)C1O)c1cnc[nH]1 (stereo not drawn) [Compound 22]
4

Item: CCCCN(CCCC)CCCNC(=O)C(N)CNC(CC(N)=O)c1nc(N)c(C)c(C(=O)NC(C(=O)NC(C)C(O)C(C)C(=O)NC(C(=O)NCCc2nc(-c3nc(C(=O)NCCC[N+](CC)(CC)CCCN(Cc4ccccc4)Cc4ccccc4)cs3)cs2)C(C)O)C(OC2OC(CO)C(O)C(O)C2OC2OC(CO)C(O)C(OC(N)=O)C2O)c2cnc[nH]2)n1 (stereo not drawn) [Compound 57]
0

Item: CCCCCCCCNC(=O)C(N)CNC(CC(N)=O)c1nc(N)c(C)c(C(=O)NC(C(=O)NC(C)C(O)C(C)C(=O)NC(C(=O)NCCc2nc(-c3nc(C(=O)NCCC[N+](C)(C)CCCN(Cc4ccccc4)Cc4ccccc4)cs3)cs2)C(C)O)C(OC2OC(CO)C(O)C(O)C2OC2OC(CO)C(O)C(OC(N)=O)C2O)c2cnc[nH]2)n1 (stereo not drawn) [Compound 53]
0

Item: CCCCN(CCCC)CCCNC(=O)C(N)CNC(CC(N)=O)c1nc(N)c(C)c(C(=O)NC(C(=O)NC(C)C(O)C(C)C(=O)NC(C(=O)NCCc2nc(-c3nc(C(=O)NCCC[N+](C)(C)CCCN(Cc4ccccc4)Cc4ccccc4)cs3)cs2)C(C)O)C(OC2OC(CO)C(O)C(O)C2OC2OC(CO)C(O)C(OC(N)=O)C2O)c2cnc[nH]2)n1 (stereo not drawn) [Compound 54]
0

Item: Cc1c(N)nc(C(CC(N)=O)NCC(N)C(=O)NCc2ccccc2)nc1C(=O)NC(C(=O)NC(C)C(O)C(C)C(=O)NC(C(=O)NCCc1nc(-c2nc(C(=O)NCCC[N+](C)(CCCN(Cc3ccccc3)Cc3ccccc3)Cc3ccccc3)cs2)cs1)C(C)O)C(OC1OC(CO)C(O)C(O)C1OC1OC(CO)C(O)C(OC(N)=O)C1O)c1cnc[nH]1 (stereo not drawn) [Compound 51]
0

Item: CCCCN(CCCC)CCCNC(=O)C(N)CNC(CC(N)=O)c1nc(N)c(C)c(C(=O)NC(C(=O)NC(C)C(O)C(C)C(=O)NC(C(=O)NCCc2nc(-c3nc(C(=O)NCCCN(C)CCCNCC4CCCCCCC4)cs3)cs2)C(C)O)C(OC2OC(CO)C(O)C(O)C2OC2OC(CO)C(O)C(OC(N)=O)C2O)c2cnc[nH]2)n1 (stereo not drawn) [Compound 58]
0

Item: CCCCCCCCNC(=O)C(N)CNC(CC(N)=O)c1nc(N)c(C)c(C(=O)NC(C(=O)NC(C)C(O)C(C)C(=O)NC(C(=O)NCCc2nc(-c3nc(C(=O)NCCC[N+](C)(CCCN(Cc4ccccc4)Cc4ccccc4)Cc4ccccc4)cs3)cs2)C(C)O)C(OC2OC(CO)C(O)C(O)C2OC2OC(CO)C(O)C(OC(N)=O)C2O)c2cnc[nH]2)n1 (stereo not drawn) [Compound 48]
0

Origin of values: patent US4472304A
